IC50 overview
TGT: human androgen receptor (hAR) (Homo sapiens)
Sequence (P10275 whole entry): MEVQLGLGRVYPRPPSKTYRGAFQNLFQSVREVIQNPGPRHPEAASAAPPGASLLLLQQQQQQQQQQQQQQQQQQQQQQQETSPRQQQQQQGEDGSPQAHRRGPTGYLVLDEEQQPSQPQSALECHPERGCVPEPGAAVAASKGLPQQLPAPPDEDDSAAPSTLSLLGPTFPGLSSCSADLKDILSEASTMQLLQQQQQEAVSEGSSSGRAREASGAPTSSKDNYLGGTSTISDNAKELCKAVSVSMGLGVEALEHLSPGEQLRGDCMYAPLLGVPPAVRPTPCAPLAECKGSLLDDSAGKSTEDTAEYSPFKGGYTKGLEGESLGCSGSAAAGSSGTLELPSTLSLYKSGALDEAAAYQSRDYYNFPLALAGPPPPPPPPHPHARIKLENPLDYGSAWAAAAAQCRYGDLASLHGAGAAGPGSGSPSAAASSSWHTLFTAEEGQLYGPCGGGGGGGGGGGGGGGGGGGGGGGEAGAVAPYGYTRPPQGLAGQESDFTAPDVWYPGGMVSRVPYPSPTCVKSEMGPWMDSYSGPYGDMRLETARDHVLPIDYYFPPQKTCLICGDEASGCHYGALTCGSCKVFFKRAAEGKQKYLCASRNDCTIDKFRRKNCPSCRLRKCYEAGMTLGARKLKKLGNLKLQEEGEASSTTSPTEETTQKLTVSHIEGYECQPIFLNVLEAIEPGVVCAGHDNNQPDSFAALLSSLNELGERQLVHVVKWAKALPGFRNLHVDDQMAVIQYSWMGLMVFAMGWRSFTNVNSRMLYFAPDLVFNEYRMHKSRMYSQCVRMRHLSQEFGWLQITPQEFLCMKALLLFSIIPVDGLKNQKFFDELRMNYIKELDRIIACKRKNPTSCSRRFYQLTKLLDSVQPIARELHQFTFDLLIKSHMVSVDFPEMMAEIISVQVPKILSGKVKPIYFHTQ
PROTOCOL DESCRIPTION: Antiandrogen transactivation assay (PC3 cells, hAR, MMTV-luciferase reporter)
PARTICULARS: PC3 cells stably transfected with hAR and MMTV-luciferase, 16 hours incubation; read-out: IC50, antiandrogenic effect in the transactivation assay

{"COMPOUND": "C[C@]12CCC(=O)C=C1[C@@H]1C[C@@H]1C1C2=CC[C@@]2(C)C1[C@@H]1C[C@@H]1[C@@]21CCC(=O)O1 (some centres unmarked)", "IC50": "240 nM"}
{"COMPOUND": "C[C@]12CCC(=O)C=C1[C@@H]1C[C@@H]1C1C2[C@@H](F)C[C@@]2(C)C1[C@@H]1C[C@@H]1[C@@]21CCC(=O)O1 (single isomer, unassigned)", "IC50": "160 nM"}
